molecular target: PDHK1 (Homo sapiens (Human)); assay: PDHK1 enzymatic assay (AlphaScreen, phosphorylation of PDHE1 S293); format: biochemical; settings: 1 nM PDHK1, 25 nM PDHE1, 20 μM ATP, 30° C. for 45 minutes
Sequence (Q15118 29-436): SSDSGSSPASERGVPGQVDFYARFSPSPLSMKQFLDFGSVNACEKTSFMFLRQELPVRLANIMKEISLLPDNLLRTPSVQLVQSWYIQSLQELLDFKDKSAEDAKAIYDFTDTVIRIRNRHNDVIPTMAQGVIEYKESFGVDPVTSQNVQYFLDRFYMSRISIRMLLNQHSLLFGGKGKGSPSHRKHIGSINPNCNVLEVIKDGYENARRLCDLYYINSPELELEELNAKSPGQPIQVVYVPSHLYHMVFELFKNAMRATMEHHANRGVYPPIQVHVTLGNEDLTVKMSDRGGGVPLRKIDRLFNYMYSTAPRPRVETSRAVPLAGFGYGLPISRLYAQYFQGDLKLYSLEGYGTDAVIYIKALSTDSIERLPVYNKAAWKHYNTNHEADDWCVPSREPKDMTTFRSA
Measurement Name: Enzymatic IC50 against PDHK1 (µg/mL)
Write it as a number; the unit µg/mL goes unstated.

Given the molecule CCNc1cc(F)cc2c1NC(=O)C2(C)N1CCC[C@@H](Nc2ccc(C(=O)CO)cc2)C1 (stereo partly shown) [Example 19] , write its reported Enzymatic IC50 against PDHK1.
0.016

----------
biological target: UniProt Q15118; test: PDHK1 enzymatic assay (AlphaScreen, phosphorylation of PDHE1 S293); type: biochemical; details: 1 nM PDHK1, 25 nM PDHE1, 20 μM ATP, 30° C. for 45 minutes
Please assign Criterion not met whenever Enzymatic IC50 against PDHK1 is at or above 0.01 µg/mL, and Criterion met whenever it is below.

Past entries and their recorded results:
CCNc1cc(F)cc2c1NC(=O)C2(C)N1CCC[C@@H](Nc2cccc(S(=O)(=O)F)c2)C1 (stereo partly drawn) | Criterion not met
CCNc1cc(F)cc2c1NC(=O)C2(C)N1CCCC(NC(=O)C2CC3(C2)CN(C#N)C3)C1 (stereo in doubt) | Criterion not met
CCNc1cc(F)cc2c1NC(=O)C2(C)N1CCC[C@@H](NC(=O)c2ccc(S(=O)(=O)F)cc2)C1 (stereo partly drawn) | Criterion not met
CCNc1cc(F)cc2c1NC(=O)C2(C)N1CCC[C@@H](Nc2cnc(C#N)nc2)C1 (stereo partly drawn) | Criterion not met
C=CS(=O)(=O)N[C@H]1CN(C2(C)C(=O)Nc3c(NCC)cc(F)cc32)CC[C@@H]1c1ccccc1 (stereo partly drawn) | Criterion not met
CCNc1cc(F)cc2c1NC(=O)C2(C)N1CC[C@H](c2ccccc2)[C@@H](NC(=O)C2CN(C#N)C2)C1 (stereo partly drawn) | Criterion met

Determine whether this compound shows Enzymatic IC50 against PDHK1 lower than 0.01 µg/mL (ties excluded): CCNc1cc(F)cc2c1NC(=O)C2(C)N1CC[C@H](O)[C@@H](Nc2ccc(C#N)nc2)C1 (stereo partly drawn)
Criterion not met

Consider the compound CCNc1cc(F)cc2c1NC(=O)C2(C)N1CCC[C@@H](Nc2ccc(C(N)=O)nc2)C1 (stereo partly drawn) . Is its Enzymatic IC50 against PDHK1 strictly less than 0.01 µg/mL?
Criterion not met

# check: Enzymatic IC50 against PDHK1 < 0.01 µg/mL for CCNc1cc(F)cc2c1NC(=O)C2(C)N1CCC[C@@H](Nc2ccc(C#N)cc2)C1 (stereo partly drawn)
Criterion not met

In the record for CCNc1cc(F)cc2c1NC(=O)C2(C)N1CCC[C@@H](Nc2cc(C)c(S(=O)(=O)F)cn2)C1 (stereo partly drawn) , is Enzymatic IC50 against PDHK1 less than 0.01 µg/mL?
Criterion not met

Identify whether the compound CCNc1cc(F)cc2c1NC(=O)C2(CC)N1CC[C@H](F)[C@@H](Nc2ccc(C#N)nc2)C1 (stereo partly drawn) records Enzymatic IC50 against PDHK1 below 0.01 µg/mL.
Criterion met

Please let me know if CCNc1cc(F)cc2c1NC(=O)C2(C)N1CC[C@@H](O)[C@@H](Nc2ccc(C#N)nc2)C1 (stereo partly drawn) shows Enzymatic IC50 against PDHK1 below 0.01 µg/mL.
Criterion not met

Data credit: patent US20240140933A1
